Recorded values, source patent US20070037788A1.

Recorded measurements of Ki, one per entry
biological target: human GR (glucocorticoid receptor) (Homo sapiens, UniProt P04150); construct: expressed in transfected cells; host or cells: 293 cells; experiment: Alternative Binding Assay Protocol (Method 2), GR; conditions: 293-GR lysate, 3H-dexamethasone
Sequence (P04150 whole entry): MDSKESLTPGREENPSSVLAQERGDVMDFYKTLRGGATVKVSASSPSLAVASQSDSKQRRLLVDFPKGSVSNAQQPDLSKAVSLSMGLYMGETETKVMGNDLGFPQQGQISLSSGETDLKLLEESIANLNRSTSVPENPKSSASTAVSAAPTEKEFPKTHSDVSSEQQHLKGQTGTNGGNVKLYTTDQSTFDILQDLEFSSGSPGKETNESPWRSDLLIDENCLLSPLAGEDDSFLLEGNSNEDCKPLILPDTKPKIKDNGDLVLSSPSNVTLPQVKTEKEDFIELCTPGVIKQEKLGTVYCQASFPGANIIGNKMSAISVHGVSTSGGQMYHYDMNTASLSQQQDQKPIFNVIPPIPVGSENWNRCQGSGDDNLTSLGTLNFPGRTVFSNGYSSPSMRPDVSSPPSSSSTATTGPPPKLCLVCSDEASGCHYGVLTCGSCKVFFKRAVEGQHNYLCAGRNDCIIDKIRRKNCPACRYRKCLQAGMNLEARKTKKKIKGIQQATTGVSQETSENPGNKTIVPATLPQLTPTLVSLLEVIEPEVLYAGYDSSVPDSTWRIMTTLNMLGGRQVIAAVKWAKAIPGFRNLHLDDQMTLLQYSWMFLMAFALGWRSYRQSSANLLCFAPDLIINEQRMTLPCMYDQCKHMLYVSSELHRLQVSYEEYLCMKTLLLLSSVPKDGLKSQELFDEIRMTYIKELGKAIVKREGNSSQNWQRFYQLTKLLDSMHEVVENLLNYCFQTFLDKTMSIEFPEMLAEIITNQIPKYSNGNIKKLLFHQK

Please review the entries below; each comes with its answer.
C[C@H](CN1CCOCC1)n1c(=O)[nH]c2cc(/C=C3/c4ccc(F)cc4OCc4c(F)cccc43)ccc21 [Example 38] : < 500 nM
CN1CCN(CCn2c(=O)[nH]c3cc(/C=C4/c5ccc(F)cc5OCc5c(F)cccc54)ccc32)CC1 [Example 34] : < 500 nM
C[C@@H](CN1CCOCC1)n1c(=O)[nH]c2cc(/C=C3/c4ccc(F)cc4OCc4c(F)cccc43)ccc21 [Example 39] : < 1000 nM
C[C@@H]1CN(CCn2c(=O)[nH]c3cc(/C=C4\c5ccccc5COc5cc(F)ccc54)ccc32)C[C@H](C)O1 [Example 13] : < 500 nM

Which Ki is reported for this compound? CN1CCC(n2c(=O)[nH]c3cc(/C=C4\c5ccc(F)cc5COc5cc(F)ccc54)ccc32)CC1 [Example 4]
< 1000 nM

Please answer likewise for O=c1[nH]c2cc(/C=C3\c4ccc(F)cc4COc4cc(F)ccc43)ccc2n1[C@H]1CCNC1 [Example 29]
< 500 nM

Check O=c1[nH]c2cc(/C=C3\c4ccccc4COc4cc(F)ccc43)ccc2n1C[C@@H]1CCCN1 [Example 18] too.
< 1000 nM

What do you get for CN1CCN(CCn2c(=O)[nH]c3cc(/C=C4\c5ccccc5COc5cc(F)ccc54)ccc32)CC1 [Example 8] ?
< 500 nM

// same read-out, input: CCN1CC[C@H](n2c(=O)[nH]c3cc(/C=C4/c5ccc(F)cc5OCc5c(F)cccc54)ccc32)C1 [Example 44]
< 1000 nM

Try the compound CC(C)(CN1CCOCC1)n1c(=O)[nH]c2cc(/C=C3\c4ccccc4COc4cc(F)ccc43)ccc21 [Example 1]
< 1000 nM

What do you get for CCN1CC[C@@H](n2c(=O)[nH]c3cc(/C=C4/c5ccc(F)cc5OCc5c(F)cccc54)ccc32)C1 [Example 46] ?
< 1000 nM

Can you check C[C@H](CN1CCOCC1)n1c(=O)[nH]c2cc(/C=C3\c4ccc(F)cc4COc4cc(F)ccc43)ccc21 [Example 22] next?
< 500 nM

// next record O=c1[nH]c2cc(/C=C3/c4ccc(F)cc4OCc4c(F)cccc43)ccc2n1C1CCNCC1 [Example 36]
< 500 nM

Would you kindly repeat that for C[C@@H](CN1CCOCC1)n1c(=O)[nH]c2cc(/C=C3\c4ccccc4COc4cc(F)ccc43)ccc21 [Example 11] ?
< 500 nM

Could you do the same for O=c1[nH]c2cc(/C=C3\c4ccc(F)cc4COc4cc(F)ccc43)ccc2n1[C@@H]1CCNC1 [Example 31] , please?
< 500 nM
